Would you kindly list protein stability index for each of these variants?
B1: CCND1 (parent)
chain: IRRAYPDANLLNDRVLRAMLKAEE

# Variants of: B1
# assay.protocol: protein stability index of a GFP-peptide fusion (GPS, HEK-293T) (PSI 1-6); higher = more stable;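 also: lentivirally expressed fusions sorted by FACS into six bins by GFP to DsRed ratio, PSI derived from sequencing read proportions per bin multiplied by bin number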
# settings: c terminus: a fixed tail appended
Answer as a number with no unit attached.

Task: GET /values?readout=protein stability index&item= IRRAYPDADLLNDRVLRAMLKAEE [N9D]
Result: 2.3

Task: Another variant: IRRAYPDANLLNDRVLFAMLKAEE [R17F]
Result: 2.1

Task: // same read-out, input: IRRAYPDANLLNDYVLRAMLKAEE [R14Y]
Result: 1.84

Task: Another: IRRAYYDANLLNDRVLRAMLKAEE [P6Y]
Result: 1.63

Task: Another variant to look at: IRRAYPDANLLPDRVLRAMLKAEE [N12P]
Result: 1.84

Task: Likewise for IRRAYPDANLLNDRVLRAMKKAEE [L20K] ?
Result: 3.25

Task: Check IRRAYPDANLLNDEVLRAMLKAEE [R14E] too.
Result: 2.84

Task: And what about the variant IRRAYPDANLLNDRVLRAMLVAEE [K21V] ?
Result: 2.93

Task: Note, next up: IRRAYPDANVLNDRVLRAMLKAEE [L10V]
Result: 2.49

Task: Again, but for IRPAYPDANLLNDRVLRAMLKAEE [R3P]
Result: 2.71

Task: Also, IRRAYPDANLLNDRVLRAMLKAEY [E24Y] please.
Result: 1.35
